# Lookup of reported IC50 keyed by entry
# System: Human immunodeficiency virus 1
# PROTOCOL DETAILS: microbe, parasite or virus in culture
# ASSAY CONDITIONS: Human immunodeficiency virus 1, MT4
# Description: Inhibitory activity against 100I strain of HIV-I in MT-4 cells
# number only, unit nM dropped from output

Use the examples below as a reference point.
INSERT INTO assay_data (structure_smiles_string, recorded_endpoint, measured) VALUES
  ('C=Cc1cnc(Nc2ccc(C#N)cc2)nc1Nc1c(C)cc(C)cc1C', 'IC50', 35),
  ('Cc1cc(C)c(Nc2nc(Nc3ccc(C#N)cc3)ncc2C)c(C)c1', 'IC50', 12),
  ('CC(C)Nc1cccnc1N1CCN(C(=O)c2cc3cc(NS(C)(=O)=O)ccc3[nH]2)CC1', 'IC50', 2510),
  ('Cc1cc(C#N)cc(C)c1Oc1nc(Nc2ccc(C#N)cc2)ncc1N', 'IC50', 16),
  ('Cc1cc(C)c(Oc2ccnc(Nc3ccc(C#N)cc3)n2)c(C)c1', 'IC50', 22),
  ('Cc1cc(C)c(Nc2ccnc(Nc3ccc(C#N)cc3)n2)c(C)c1', 'IC50', 18),
  ('Cc1cc(C)c(Sc2ccnc(Nc3ccc(C#N)cc3)n2)c(C)c1', 'IC50', 54),
  ('Cc1cc(Br)cc(C)c1Nc1ccnc(Nc2ccc(C#N)cc2)n1', 'IC50', 76);

Ask: Check Human immunodeficiency virus 1 data and give IC50 for "N#Cc1ccc(Nc2nccc(Nc3c(F)cc(Br)cc3Br)n2)cc1" .
Result: 15

Ask: Check Human immunodeficiency virus 1 data and give IC50 for "N#Cc1ccc(Nc2cc(Cc3c(Cl)cccc3Cl)nc(N)n2)cc1" .
Result: 96600

Ask: Check Human immunodeficiency virus 1 data and give IC50 for "Cc1cc(C)c(Nc2nc(Nc3ccc(C#N)cc3)ncc2Cl)c(C)c1" .
Result: 17

Ask: Check Human immunodeficiency virus 1 data and give IC50 for "N#Cc1ccc(Nc2nccc(Nc3c(Cl)cc(Cl)cc3Cl)n2)cc1" .
Result: 14

Ask: Check Human immunodeficiency virus 1 data and give IC50 for "Cc1cc(C#N)cc(C)c1Oc1ccnc(Nc2ccc(C#N)cc2)n1" .
Result: 73

Ask: Check Human immunodeficiency virus 1 data and give IC50 for "N#Cc1ccc(Nc2nc(N)cc(Cc3c(Cl)cccc3Cl)n2)cc1" .
Result: 299

Ask: Check Human immunodeficiency virus 1 data and give IC50 for "Cc1cc(C#N)cc(C)c1Oc1nc(Nc2ccc(C#N)cc2)nc(N)c1Br" .
Result: 3.3

Ask: Check Human immunodeficiency virus 1 data and give IC50 for "Cc1cc(C#N)cc(C)c1Oc1nc(Nc2ccc(C#N)cc2)ncc1Br" .
Result: 6.6

Ask: Check Human immunodeficiency virus 1 data and give IC50 for "Cc1cccc(C)c1Nc1ccnc(Nc2ccc(C#N)cc2)n1" .
Result: 212

Ask: Check Human immunodeficiency virus 1 data and give IC50 for "Cc1cc(C#N)cc(C)c1Oc1nc(Nc2ccc(C#N)cc2)ncc1Cl" .
Result: 7.5

Ask: Check Human immunodeficiency virus 1 data and give IC50 for "Cc1cc(C)c(Nc2nc(Nc3ccc(C#N)cc3)ncc2C#N)c(C)c1" .
Result: 63

Ask: Check Human immunodeficiency virus 1 data and give IC50 for "Cc1cc(C#N)cc(C)c1Oc1nc(Nc2ccc(C#N)cc2)ncc1[N+](=O)[O-]" .
Result: 121

Ask: Check Human immunodeficiency virus 1 data and give IC50 for "Cc1cnc(Nc2ccc(C#N)cc2)nc1Nc1c(C)cc(C#N)cc1C" .
Result: 16

Ask: Check Human immunodeficiency virus 1 data and give IC50 for "Cc1cc(C#N)cc(C)c1Nc1nc(Nc2ccc(C#N)cc2)ncc1Br" .
Result: 7

----------
# Lookup of reported log10 of IC50 keyed by entry
# Tested on: Human immunodeficiency virus 1
# PROTOCOL DETAILS: microbe, parasite or virus in culture
# ASSAY CONDITIONS: Human immunodeficiency virus 1, MT4
# Description: Inhibitory activity against 181C strain of HIV-I in MT-4 cells
Each number you see is log10 of IC50, and the unit inside the log is nM.

Use the examples below as a reference point.
INSERT INTO assay_data (structure_smiles_string, measured) VALUES
  ('Cc1cc(C#N)cc(C)c1Oc1nc(Nc2ccc(C#N)cc2)ncc1Cl', 1.53),
  ('Cc1cc(Cl)cc(Cl)c1Nc1ccnc(Nc2ccc(C#N)cc2)n1', 1.26),
  ('Cc1cc(C#N)cc(C)c1Nc1nc(Nc2ccc(C#N)cc2)ncc1Cl', 1.15),
  ('Cc1cc(Br)cc(C)c1Oc1ccnc(Nc2ccc(C#N)cc2)n1', 1.77),
  ('N#Cc1ccc(Nc2nccc(Nc3c(F)cc(Br)cc3Br)n2)cc1', 1.18),
  ('Cc1cc(C#N)cc(C)c1Nc1ccnc(Nc2ccc(C#N)cc2)n1', 0.85);

Ask: Tell us which log10 of IC50 value is on record for "C=Cc1cnc(Nc2ccc(C#N)cc2)nc1Nc1c(C)cc(C)cc1C"
Result: 1.56

Ask: Tell us which log10 of IC50 value is on record for "Cc1cc(Cl)cc(C)c1Nc1ccnc(Nc2ccc(C#N)cc2)n1"
Result: 1.28

Ask: Tell us which log10 of IC50 value is on record for "Cc1cc(C#N)cc(C)c1Oc1nc(Nc2ccc(C#N)cc2)nc(N)c1Br"
Result: 0.85

Ask: Tell us which log10 of IC50 value is on record for "Cc1cc(C#N)cc(C)c1Nc1nc(Nc2ccc(C#N)cc2)ncc1C#N"
Result: 1.88

Ask: Tell us which log10 of IC50 value is on record for "Cc1cc(C)c(Oc2ccnc(Nc3ccc(C#N)cc3)n2)c(C)c1"
Result: 1.58

----------
# System: Human immunodeficiency virus 1
# PROTOCOL DETAILS: microbe, parasite or virus in culture
# ASSAY CONDITIONS: Human immunodeficiency virus 1, MT4
RECORDED ENDPOINT: IC50 (µM)
# number only, unit µM dropped from output

INSERT INTO results (structure_smiles_string, measured) VALUES
  ('Cc1cc(Cl)cc(C)c1Nc1ccnc(Nc2ccc(C#N)cc2)n1', 0.327),
  ('Cc1cc(C#N)cc(C)c1Nc1nc(Nc2ccc(C#N)cc2)ncc1C#N', 0.091),
  ('Cc1cc(Br)cc(C)c1Oc1ccnc(Nc2ccc(C#N)cc2)n1', 0.113);

Turning now to a further molecule:
Ask: Check Human immunodeficiency virus 1 data and give IC50 for "Cc1cc(Cl)cc(Cl)c1Nc1ccnc(Nc2ccc(C#N)cc2)n1" .
Result: 0.06

----------
# System: Human immunodeficiency virus 1
# PROTOCOL DETAILS: microbe, parasite or virus in culture
# ASSAY CONDITIONS: Human immunodeficiency virus 1, MT4
RECORDED ENDPOINT: pIC50
Just the number, please; pIC50 means minus log10 of the concentration in mol/L.

Use the examples below as a reference point.
INSERT INTO measurements (structure_smiles_string, recorded_endpoint, measured) VALUES
  ('Cc1cc(C#N)cc(C)c1Oc1ccnc(Nc2ccc(C#N)cc2)n1', 'pIC50', 7.43),
  ('Cc1cnc(Nc2ccc(C#N)cc2)nc1Nc1c(C)cc(C#N)cc1C', 'pIC50', 7.92),
  ('Cc1cc(C#N)cc(C)c1Nc1nc(Nc2ccc(C#N)cc2)ncc1Br', 'pIC50', 8.02),
  ('Cc1cc(Br)cc(C)c1Nc1ccnc(Nc2ccc(C#N)cc2)n1', 'pIC50', 7.77),
  ('Cc1cc(C)c(Nc2nc(Nc3ccc(C#N)cc3)ncc2Br)c(C)c1', 'pIC50', 7.44),
  ('Cc1cc(C#N)cc(C)c1Oc1nc(Nc2ccc(C#N)cc2)ncc1[N+](=O)[O-]', 'pIC50', 6.52),
  ('Cc1cccc(C)c1Nc1ccnc(Nc2ccc(C#N)cc2)n1', 'pIC50', 7.21),
  ('Cc1cc(C)c(Sc2ccnc(Nc3ccc(C#N)cc3)n2)c(C)c1', 'pIC50', 7.60),
  ('Cc1cc(C)c(Nc2nc(Nc3ccc(C#N)cc3)ncc2C)c(C)c1', 'pIC50', 7.92),
  ('Cc1cc(C#N)cc(C)c1Oc1nc(Nc2ccc(C#N)cc2)ncc1Br', 'pIC50', 7.66);

Ask: Tell us which pIC50 value is on record for "N#Cc1ccc(Nc2nccc(Nc3c(Cl)cc(Cl)cc3Cl)n2)cc1"
Result: 8.00

Ask: Tell us which pIC50 value is on record for "N#Cc1ccc(Nc2nc(N)cc(Cc3c(Cl)cccc3Cl)n2)cc1"
Result: 6.76

Ask: Tell us which pIC50 value is on record for "Cc1cc(C)c(Nc2nc(Nc3ccc(C#N)cc3)ncc2Cl)c(C)c1"
Result: 7.49

Ask: Tell us which pIC50 value is on record for "Cc1cc(C)c(Nc2nc(Nc3ccc(C#N)cc3)ncc2C#N)c(C)c1"
Result: 7.40

Ask: Tell us which pIC50 value is on record for "Cc1cc(Br)c(Nc2ccnc(Nc3ccc(C#N)cc3)n2)c(Br)c1"
Result: 8.47

Ask: Tell us which pIC50 value is on record for "C#Cc1cc(C)c(Oc2ccnc(Nc3ccc(C#N)cc3)n2)c(C)c1"
Result: 6.77

Ask: Tell us which pIC50 value is on record for "Cc1cc(Br)cc(C)c1Sc1ccnc(Nc2ccc(C#N)cc2)n1"
Result: 7.17

Ask: Tell us which pIC50 value is on record for "Cc1cc(C#N)cc(C)c1Oc1nc(Nc2ccc(C#N)cc2)ncc1N"
Result: 8.03

Ask: Tell us which pIC50 value is on record for "Cc1cc(C)c(Nc2ccnc(Nc3ccc(C#N)cc3)n2)c(C)c1"
Result: 8.12

Ask: Tell us which pIC50 value is on record for "CC(C)Nc1cccnc1N1CCN(C(=O)c2cc3cc(NS(C)(=O)=O)ccc3[nH]2)CC1"
Result: 5.70
